All figures here come from the supplement of paper PMC9170038.

System: MS2 coat protein
Assay: apparent KD of MS2 coat protein; higher = weaker reporter binding
Conditions: Eterna round: R107; input ligand: tryptophan 2.4 mM
Label rule, in plain words: apparent KD of MS2 coat protein of 0.04 µM and up is YES, under 0.04 µM is NO.

Ask: Would you say UCGCAUUGCUGCGAUACCAGACAUGAGGAUCACCCAUGUACCAAGGUACGAAAAUAACAUGUCCCUUGGCAGCGCAGCAAUGCGU [MAT - Exclusion Theophlline B - Mod of Eli - D5] shows apparent KD of MS2 coat protein at minimum 0.04 µM?
Reply: NO

Ask: Exam item: decide whether the reported apparent KD of MS2 coat protein for CGGUUUGUGAUGGAUACCAGCAGUGUGGCUGUUUAUCCUGACAUGAGGAUCACCCAUGUGUGCCCUUGGCAGCUGUUGUGGGCUG [8.aC] is at least 0.04 µM.
Reply: YES

Ask: For this sequence, is measured apparent KD of MS2 coat protein 0.04 µM or higher? GUAUUAAGAAAACUUGAUACAGUGGGUGAACGAGGACCGGUACGGCCGCCACUCGGACAUGAGGAUCACCCAUGUCCAUGUGAAA [AstrosExyTryA#11]
Reply: NO

Ask: Exam item: decide whether the reported apparent KD of MS2 coat protein for AGCGACAUGCAUGAUACCAGCUACAUGAGGAUCACCCAUGUACGUCAGUAAUGACUGUGUAGCCCUUGGCAGCAUAGAGCAUGUA [Exclusion - Theophylline B (Freestyle 14)] is at least 0.04 µM.
Reply: NO

Ask: Please indicate if the recorded apparent KD of MS2 coat protein for UUUACAUGAGGAUCACCCAUGUGCCAUGAUACCAGACAUGAAAAUGUCCCUUGGCAGCAUGAGUGAAGCGUCGGGAAACCGACGC [Kninicky] meets or exceeds 0.04 µM.
Reply: YES

Ask: State whether the measured apparent KD of MS2 coat protein reaches 0.04 µM, counting equality as reaching it, for AGAACUUUGGUGGAUACCAGCUUCUGGCCAUCCUUCAAAUACAUGAGGAUCACCCAUGUUAGCCCUUGGCAGCCAACAUAGACUG [theeternabot_exclusion_MS2_Theo_B_44]
Reply: NO

Ask: Given the entry AUAACAUGAGGAUCACCCAUGUAAGCUGAAGGAGCGCUGGAAACAGCAGGUAGGUCGCAGCAUGUUUCCACAUGGGUAGGAAACU [(M1)-(M2)-(Arg1)-(Arg2)-(A)'-(M)'-(A)''_Design8] , answer whether its apparent KD of MS2 coat protein meets or surpasses 0.04 µM.
Reply: YES

Ask: Is apparent KD of MS2 coat protein for UGUAUGUGAUUUGAUACCAGACCAGCUGGUGUUAGAUGAGGAUCACCCAUCUAGGUUUGGGUCCCUUGGCAGCAAAUCGCAUACU [SS Theo B #24 Ms13] at or above 0.04 µM?
Reply: NO

Ask: Threshold query (apparent KD of MS2 coat protein >= 0.04 µM) on AAUUUCGUAGGUAAAAGUUUAGAAACUGAAGGAGCGUGGUAUUACACAGGUAGGUCGCAGAUUUUACAUGAGGAUCACCCAUGUU [JR_SSArginiA_Sub008]
Reply: NO

Ask: Confirm if apparent KD of MS2 coat protein reported for the sequence ACACGGGCAUGAGGAUCACCCAUGUAAUAACGAGGACCGGUACGGCCGCCACUCGUGCACCGUGACCUGUACGAAAAGUGCAGGA is 0.04 µM or above.
Reply: NO

Ask: Is apparent KD of MS2 coat protein for UCAGUGCAAGGAAGGAGCGGGUACAUGAGGAUCACCCAUGUGCAAGUGGUGAGUGUUCGUGCCCAGGUAGGUCGCCUAGCCUGGU [XArg-B19] at or above 0.04 µM?
Reply: YES

====

Test system: MS2 coat protein
Experiment: apparent KD of MS2 coat protein; designed switch direction (-1 OFF switch, 1 ON switch): -1; higher = weaker reporter binding
Conditions: Eterna round: R95; input ligand: microRNA oligo, concentration not stated
measuredEndpoint: apparent KD of MS2 coat protein

Ask: Kindly indicate its recorded apparent KD of MS2 coat protein. Item: GUGGCACAUGAGGAUCACCCAUGUCAGGAUAUCGUGUGUUUUUUUUCGGCCGCGCGCGCGAGAAGGGACGUCUU (puzzle: Exclusion 1)
Reply: 97.8 nM

Ask: Write down apparent KD of MS2 coat protein measured for item UGUUGGCGAGGAUAUACAUGAGGAUCACCCAUGUGAGAGAAAAAAGUGAGGAAGAAAAGUAGAAGGCGCUGACG [salish99_ex3_r3_043] (puzzle: Exclusion 3)
Reply: 40 nM

Ask: Tell me its apparent KD of MS2 coat protein given CUUUUGUGAGGAUAUCAGUAGUAAAUAAAUAAUAUUACUACUGAGAAGGCACAUGAGGAUCACCCAUGUUCCUC [salish99_ex3_r3_083] (puzzle: Exclusion 4) as the entry.
Reply: 42.3 nM

Ask: Fill in reported apparent KD of MS2 coat protein for this entry: GGAUAGUGAGGAUAUCGAUGUUAGGAGGAGUAGAUAGGAGGCGAGAAGGCACAUGAGGAUCACCCAUGUAUGGA [JR_Exclu4_Sub068] (puzzle: Exclusion 4)
Reply: 47.8 nM

====

What apparent KD of MS2 coat protein was measured for each of the following?
Tested on: MS2 coat protein
Test: apparent KD of MS2 coat protein; designed switch direction (-1 OFF switch, 1 ON switch): -1; higher = weaker reporter binding
Details: Eterna round: R95; input ligand: microRNA oligo, concentration not stated
State the answer as a number, implicitly in nM.

Ask: Identify measured apparent KD of MS2 coat protein associated with AUAGAGUCAGGAUAUACAGGUGGAGGAGAGCAGCAUAAGGAGUAGAAGGGACAUGAGGAUCACCCAUGUAAGUG [JR_Exclu4_Sub059] (puzzle: Exclusion 4)
Reply: 63.9

Ask: Give the value of apparent KD of MS2 coat protein reported for the following: AUUUUGUCAGGAUAUGACUAGAUGCACGAAAGUGCAUCUACUUAGAAGGGACAUGAGGAUCACCCAUGUAUUCC [Bring Us a Shrubbery-11] (puzzle: Exclusion 4)
Reply: 13.9

Ask: Please supply the value of reported apparent KD of MS2 coat protein for the item UUUUAACAUGAGGAUCACCCAUGUGAGGAUAUCGUAAUUUUUAUUAAUAUUAAUAAAACGAGAAGGCACAUUUU [JMF 13] (puzzle: Exclusion 1)
Reply: 66.8

Ask: Tell me measured apparent KD of MS2 coat protein for CUUUUGUGAGGAUAUCAGUAGUAAUACAAUAGUAUUACUACUGAGAAGGCACAUGAGGAUCACCCAUGUUCCUU [Ex4 344 Omei mod 1] (puzzle: Exclusion 4) please.
Reply: 14.5

Ask: Complete the entry with apparent KD of MS2 coat protein for UUUUUGUCAGGAUAUGAUUAGAUCUACUUUUGUAGAUCUAAUCAGAAGGGACAUGAGGAUCACCCAUGUAGUUU [Ex4 - 3 - 11] (puzzle: Exclusion 4)
Reply: 35.7

Ask: For the sequence GGAUCGAGUGUGAGGAUAUGCUGGUCCUUGGAUCAGCAGAAGGCACAUGAGGAUCACCCAUGUGGAGACGGUCC [JL bmx4 3.17] (puzzle: Brourd's mod of Exclusion 4) , give its reported apparent KD of MS2 coat protein.
Reply: 92.4

Ask: Supply recorded apparent KD of MS2 coat protein for GAAAAGUGAGGAUAUGGUAAAAAAAAAAGAAAAAAAAAACUCCAGAAGGCACAUGAGGAUCACCCAUGUAAAAG [salish99_ex4_r3_003] (puzzle: Exclusion 4) here.
Reply: 19.5

Ask: Retrieve apparent KD of MS2 coat protein measured for GUAGAGUCAGGAUAUACAAGAUCGAAAGAUCGAAGAUCCAUACAUGAGGAUCACCCAUGUAGAAGGGACUCUAC [ChP 11-04-2015 #3] (puzzle: Exclusion 2) and print it.
Reply: 16.9

Ask: Report measured apparent KD of MS2 coat protein; entry is AGAUGGCGAGGAUAUACAUGAGGAUCACCCAUGUGAAGAUAUAAAGUGAGGAAGAAAAGUAGAAGGCGCUGUCA [Mat - Exclusion 3 - Mod of Salish D25] (puzzle: Exclusion 3)
Reply: 48.8

Ask: Please list apparent KD of MS2 coat protein recorded for the sequence GUUAGUUAAGGAUAUACAGGGAGCUGCGGCGUCUCGCCGCAACAUGAGGAUCACCCAUGUAGAAGGUAGCCGUU [JL ViennaUCT Enbibi mod 8] (puzzle: Exclusion 2)
Reply: 53.2

Ask: Report measured apparent KD of MS2 coat protein; entry is GUGAGAUAGUUAGUGGACGACAUGAGGAUCACCCAUGUGAGGGAAAUGUUGAGGAGAAAGCUUUUUGCUCGUCUUUA [JR_SV3TOV1_Sub036] (puzzle: Sensor v3, turn-off variant 1)
Reply: 87.4

Ask: State, in one line, measured apparent KD of MS2 coat protein of GAGCUAUGAGGAUAUGCAUAGAUACGGAUUCGUGUAGUACUACAUGAGGAUCACCCAUGUAGAAGGCGUGGCUG [JL-ex2-2.02 mat747 mod] (puzzle: Exclusion 2)
Reply: 15.4

Ask: Read off the recorded apparent KD of MS2 coat protein for CCUCUAACCUAGGAUAUAGGUAGACCUAGUCGCCUAGAAGGAGGUACAUGAGGAUCACCCAUGUAUAUUGGGCU [Inmaor] (puzzle: Exclusion 6)
Reply: 173

Ask: Tell me measured apparent KD of MS2 coat protein for UCCUUACAUGAGGAUCACCCAUGUCAGGAUAUCUCGGGCGGCUGAGGACCAGCCGCCCAGAGAAGGGACGAGGA [Dixeinis] (puzzle: Exclusion 1) please.
Reply: 23.1

Ask: Please indicate apparent KD of MS2 coat protein recorded for AAAAAACAAGGAUAUACGCACGAGGAUUGUCUUAAUUUUUGACAUGAGGAUCACCCAUGUAGAAGGUGUUAAAA [JR_Exclusion2_Sub014] (puzzle: Exclusion 2)
Reply: 76.5

Ask: For the sequence UACUAAAAGGAGGAUAUCGUAUCGGAAACGAUACGAGAAGGCUUAACAUGAGGAUCACCCAUGUUCUUCAAUAA [Mat - Exclusion 6 - Eli Mod - D88] (puzzle: Exclusion 6) , give its reported apparent KD of MS2 coat protein.
Reply: 17.3

Ask: Supply measured apparent KD of MS2 coat protein of CUCGUGUCGGAGGAUAUCCAGCGCGAAAAUAAAGGAGAAGGCCGCACAUGAGGAUCACCCAUGUAACAUGGUCC [Onbier] (puzzle: Exclusion 6) in your reply.
Reply: 44.8

Ask: Give a short answer stating reported apparent KD of MS2 coat protein for CUUUUGUGAGGAUAUCAGUAGUAAAGAAAUAAAAUUACUACUGAGAAGGCACAUGAGGAUCACCCAUGUUCCUC [Mat - Exclusion 4 - Mod of Salish - D62] (puzzle: Exclusion 4) .
Reply: 36.2

Ask: Given GGUGCUGGCGCGUCGGUGUUGGUGCAAUAAGCUUGUGAAACAUGAGGAUCACCCAUGUCCUCAUGGGCUCGUCUUGU [salish99_TOv2_r2_089] (puzzle: Sensor v3, turn-off variant 2) , respond with its apparent KD of MS2 coat protein.
Reply: 13

Ask: Fill in reported apparent KD of MS2 coat protein for this entry: UUUUACUCAGGAUAUAUGAUGUGAAACAUGAGGAUCACCCAUGUAAUAUUAUGGAUGUAAAUAGAAGGGAGAUUUU [Mat - Exclusion 5 - JL mod - D17] (puzzle: Exclusion 5)
Reply: 62.3
